TEST_DETAILS: Cmax in nude BALB/c mouse at 20 mg/kg, IG measured after 24 hrs
Format: ADME, organism-based
CONDITION_CONTEXT: in vivo, po
READOUT_TYPE: Cmax (ng/mL)
Report the figure in ng/mL without appending any unit label.

Per the record, O=C(Nc1ccc(C(=O)N/N=C/c2cccc(Cl)c2)cc1)Nc1ccc2ncccc2c1 has Cmax of 37.5

====

TEST_DETAILS: Cytotoxicity in human MCF-10A cells assessed as inhibition of cell growth by MTT assay
Format: toxicity, cell-based
READOUT_TYPE: IC50

# count of solved cases: 3
[[record]]
sample_smiles = "O=C(Nc1ccc(C(=O)N/N=C/c2cccc(Cl)c2)cc1)Nc1cccc2ncccc12"
result = "> 50 µM"

[[record]]
sample_smiles = "O=C(Nc1ccc(C(=O)N/N=C/c2cccc(Cl)c2)cc1)Nc1ccc2ncccc2c1"
result = "> 50 µM"

[[record]]
sample_smiles = "O=C(Nc1ccc(C(=O)N/N=C/c2cc(Cl)ccc2Cl)cc1)Nc1ccc2ncccc2c1"
result = "> 50 µM"


Record summary for Cc1ccc(/C=N/NC(=O)c2ccc3ncccc3c2)cc1 : reported IC50 = 40.6 µM

Sample O=C(N/N=C/c1ccc(Cl)cc1)c1ccc2ncccc2c1 ; IC50 observed: > 50 µM

Measured IC50 of CCC/C=N/NC(=O)c1cccc2ncccc12 : 39.5 µM
